B1: tRNA (parent)
chain: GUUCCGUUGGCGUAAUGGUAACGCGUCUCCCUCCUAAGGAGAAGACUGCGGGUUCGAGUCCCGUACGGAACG

variants of: B1; assay: yeast fitness relative to wild type (ratio to wild type); higher = fitter; tRNA-Arg(CCU), competitive growth, 37 C, YPD
This sample holds only a part of the variants without activity.
Criterion: yeast fitness meeting or surpassing 0.6. Met: True. Not met: False.

> print(dat)
                                   mut  category
 1                      C11U A21G U35C     False
 2                      G25C G41C A70C     False
 3                           U28G A65C      True
 4                 C29U U35C C62U A70U     False
 5  U16C C22U A40G A43U C46G C49G C62U     False
 6                           U16C C24U      True
 7                      G18C U26G C55G     False
 8                      C30A U53C A70C     False
 9                  U3A A42G G52C A57G     False
10                           C34A C55G     False
11                      A42C C49A C66A     False
12                      C24G C29U G51C     False
13                  C5G G17C G63A A65G     False
14                      A15C C30U G67A     False
15                 C22U U28A C29U G38A     False
16                           U19C U26G      True
17                  U8G A21G G23A U64C     False
18                      A43C G50A G67A     False
19  A15G A21G C27U U47C G56C A57G C66G     False
20                       U8A A20C C31U     False
